Tested on: cancer cell lines from the cancer cell line encyclopedia (CCLE)
Test: Cell line profiling (CLiP) proliferation experiment
Assay type: cell-based
Settings: Homo sapiens, CHL-1, CHL-1 cells; read-out: Crossing Point
Experimental: Compound profiling experiment and data analysis was performed as previously described. Data was imported and plotted using the Tibco Spotfire DXP application. Lines were categorized as sensitive, intermediate and refractory as follows: Amax<-40 & Inflection Point <2 ~ Sensitive, Amax>-20 & Inflection Point >10 ~ Refractory, all else were called Intermediate. Cancer Cell line HG-U133 Plus 2 data was processed and normalized as described. […]
reported metric: IC50 (µM)

compound: CC(C)[C@@]12C[C@@H](O)[C@@](C)(O1)[C@@H]1CC[C@@H](C)[C@H]1[C@@H]2OC(=O)/C=C/c1ccccc1 [Englerin B]
readout number: 26.2
